Ref: ChEMBL document CHEMBL1153636

I'd appreciate it if you could supply CC50 values for the items below.
# test.name: Cytotoxicity against human Huh5-2 cells
# Type: cell-based, Huh-5-2

Worked cases, answers included:
compound | CC50
C[C@@]1(O)[C@H](O)[C@@H](CO)O[C@H]1n1cnc2c(N)ncnc21 | > 50 µM
COC(=O)[C@H](C)NP(=O)(OC[C@H]1O[C@@H](n2cnc3c(=O)[nH]c(N)nc32)[C@](C)(O)[C@@H]1O)Oc1cccc2ccccc12 (stereo partly specified) | > 50 µM
C[C@H](NP(=O)(OC[C@H]1O[C@@H](n2cnc3c(=O)[nH]c(N)nc32)[C@](C)(O)[C@@H]1O)Oc1cccc2ccccc12)C(=O)OCc1ccccc1 (stereo partly specified) | > 50 µM
C[C@H](NP(=O)(OC[C@H]1O[C@@H](n2cnc3c(N)ncnc32)[C@](C)(O)[C@@H]1O)Oc1cccc2ccccc12)C(=O)OCc1ccccc1 (stereo partly specified) | > 50 µM
C[C@H](NP(=O)(OC[C@H]1O[C@@H](n2cnc3c(=O)[nH]c(N)nc32)[C@](C)(O)[C@@H]1O)Oc1cccc2ccccc12)C(=O)OC(C)(C)C (stereo partly specified) | > 50 µM

// switching to the query compound
Data request: Please look up its CC50: CCOC(=O)[C@H](C)NP(=O)(OC[C@H]1O[C@@H](n2cnc3c(N)ncnc32)[C@](C)(O)[C@@H]1O)Oc1cccc2ccccc12 (stereo partly specified)
Data returned: > 50 µM

---

# System: carboxypeptidase
# test.name: Stability in presence of carboxypeptidase assessed as parent ProTide compound remaining after 13 hrs
# Type: ADME
# condition: read-out: Stability
quantity: remaining at 13 h
Could you write the number and then its unit?

Data request: Please look up its remaining at 13 h: C[C@H](NP(=O)(OC[C@H]1O[C@@H](n2cnc3c(=O)[nH]c(N)nc32)[C@](C)(O)[C@@H]1O)Oc1cccc2ccccc12)C(=O)OC(C)(C)C (stereo partly specified)
Data returned: 24%

---

I'd appreciate it if you could supply half-life values for the items below.
# Tested on: carboxypeptidase
# test.name: Stability in presence of carboxypeptidase assessed as parent ProTide compound remaining
# Assay type: ADME
Answers are plain numbers, in h.

molecule | half-life, h
C[C@H](NP(=O)(OC[C@H]1O[C@@H](n2cnc3c(=O)[nH]c(N)nc32)[C@](C)(O)[C@@H]1O)Oc1cccc2ccccc12)C(=O)OCc1ccccc1 (some centres not stated) | 0.05

Data request: Please look up its half-life: C[C@H](NP(=O)(OC[C@H]1O[C@@H](n2cnc3c(=O)[nH]c(N)nc32)[C@](C)(O)[C@@H]1O)Oc1cccc2ccccc12)C(=O)OC(C)(C)C (some centres not stated)
Data returned: 33

---

# test.name: Inhibition of HCV RNA-dependent RNA polymerase
# Design: species or system Hepacivirus hominis
quantity: IC50 (nM)
Numbers only, in nM.

Data request: Please look up its IC50: `C[C@@]1(O)[C@H](O)[C@@H](CO)O[C@H]1n1cnc2c(=O)[nH]c(N)nc21`
Data returned: 130

---

# test.name: Cytotoxicity against human Huh5-2 cells
# Format: cell-based, Huh-5-2
quantity: CC50

Worked cases, answers included:
compound | CC50
C[C@H](NP(=O)(OC[C@H]1O[C@@H](n2cnc3c(N)ncnc32)[C@](C)(O)[C@@H]1O)Oc1cccc2ccccc12)C(=O)OC(C)(C)C (stereo partly drawn) | > 50 µM
C[C@@]1(O)[C@H](O)[C@@H](CO)O[C@H]1n1cnc2c(=O)[nH]c(N)nc21 [2'-B-METHYL-GUANOSINE] | > 50 µM

// switching to the query compound
Data request: Please look up its CC50: CCOC(=O)[C@H](C)NP(=O)(OC[C@H]1O[C@@H](n2cnc3c(=O)[nH]c(N)nc32)[C@](C)(O)[C@@H]1O)Oc1cccc2ccccc12 (stereo partly drawn)
Data returned: > 50 µM
